Test system: Streptococcus pneumoniae
Assay: Antibacterial activity against Streptococcus pneumoniae serotype 19F assessed as percent resistant isolates by broth microdilution method
Type: functional
Conditions: Streptococcus pneumoniae, serotype 19F
This section presents molecules with their documented % resistant isolates values.

molecule | assay target | scale unit | % resistant isolates
C=CC1=C(C(=O)O)N2C(=O)[C@@H](NC(=O)/C(=N\O)c3csc(N)n3)[C@H]2SC1 | Streptococcus pneumoniae | % | 67
CO/N=C(\C(=O)N[C@@H]1C(=O)N2C(C(=O)OC(C)OC(C)=O)=C(COC(N)=O)CS[C@H]12)c1ccco1 (some centres undefined) | Streptococcus pneumoniae | % | 67
CC[C@H]1OC(=O)[C@H](C)[C@@H](O[C@H]2C[C@@](C)(OC)[C@@H](O)[C@H](C)O2)[C@H](C)[C@@H](O[C@@H]2O[C@H](C)C[C@H](N(C)C)[C@H]2O)[C@](C)(O)C[C@@H](C)CN(C)[C@H](C)[C@@H](O)[C@]1(C)O | Streptococcus pneumoniae | % | 71
CC1(C)S[C@@H]2[C@H](NC(=O)Cc3ccccc3)C(=O)N2[C@H]1C(=O)O | Streptococcus pneumoniae | % | 67
